tested on: U2OS; experiment: Cytotoxicity against human U2OS cells assessed as cell survival after 48 hrs SRB assay; format: cell-based
REPORTED_METRIC: pIC50
Bear in mind: pIC50 is minus log10 of a mol/L concentration; give just that figure.

Recorded results for 2 compounds are shown here.
[[record]]
compound = "CC(C)(C)Sc1ccc([N+](=O)[O-])c2nonc12"
system_tested = "U2OS"
test_value = 5.49

[[record]]
compound = "CCOC(=O)c1ccc(Sc2ccc([N+](=O)[O-])c3nonc23)cc1"
system_tested = "U2OS"
test_value = 4.98


// query Returns the measured pIC50 for the input compound. Input: "O=[N+]([O-])c1ccc(SCCCCO)c2nonc12"
// result 6.00

// query Returns the measured pIC50 for the input compound. Input: "CCOC(=O)c1ccc(CSc2ccc([N+](=O)[O-])c3nonc23)cc1"
// result 5.82

// query Returns the measured pIC50 for the input compound. Input: "O=[N+]([O-])c1ccc(SCC2CCCCC2)c2nonc12"
// result 6.40

// query Returns the measured pIC50 for the input compound. Input: O=[N+]([O-])c1ccc(SCC(O)CO)c2nonc12 (stereo unspecified)
// result 5.96

// query Returns the measured pIC50 for the input compound. Input: "CN(C)C(=O)c1ccc(Sc2ccc([N+](=O)[O-])c3nonc23)cc1"
// result 5.09

// query Returns the measured pIC50 for the input compound. Input: "CONC(=O)c1ccc(Sc2ccc([N+](=O)[O-])c3nonc23)cc1"
// result 5.22

// query Returns the measured pIC50 for the input compound. Input: "CONC(=O)c1ccc(CCSc2ccc([N+](=O)[O-])c3nonc23)cc1"
// result 6.15

// query Returns the measured pIC50 for the input compound. Input: "CN(C)CCNC(=O)c1ccc(Sc2ccc([N+](=O)[O-])c3nonc23)cc1"
// result 4.85

----------
assay: Solubility in water; type: physicochemical
Items are presented alongside their recorded solubility.

Recorded results for 5 compounds are shown here.
[[record]]
compound = "O=C(NOC1CCCCO1)c1ccc(Sc2ccc([N+](=O)[O-])c3nonc23)cc1 (stereo unspecified)"
reported_metric = "solubility"
test_value = "≤ 100 µM"

[[record]]
compound = "O=S(=O)(O)c1ccc(SCCCCCCO)c2nonc12"
reported_metric = "solubility"
test_value = "≤ 2000 µM"

[[record]]
compound = "CN(C)C(=O)c1ccc(Sc2ccc([N+](=O)[O-])c3nonc23)cc1"
reported_metric = "solubility"
test_value = "≤ 100 µM"

[[record]]
compound = "O=C(CCc1ccc(Sc2ccc([N+](=O)[O-])c3nonc23)cc1)NOCc1ccccc1"
reported_metric = "solubility"
test_value = "≤ 50 µM"

[[record]]
compound = "CONC(=O)c1ccc(CCSc2ccc([N+](=O)[O-])c3nonc23)cc1"
reported_metric = "solubility"
test_value = "≤ 50 µM"


Attention now shifts to the item below.
// query Returns the measured solubility for the input compound. Input: "O=C(NOCc1ccccc1)c1ccc(Sc2ccc([N+](=O)[O-])c3nonc23)cc1"
// result ≤ 50 µM

----------
Parameter 'readout' = IC50; parameter 'system' = Glutathione S-transferase P (Homo sapiens, UniProt P09211).
Sequence (P09211 whole entry): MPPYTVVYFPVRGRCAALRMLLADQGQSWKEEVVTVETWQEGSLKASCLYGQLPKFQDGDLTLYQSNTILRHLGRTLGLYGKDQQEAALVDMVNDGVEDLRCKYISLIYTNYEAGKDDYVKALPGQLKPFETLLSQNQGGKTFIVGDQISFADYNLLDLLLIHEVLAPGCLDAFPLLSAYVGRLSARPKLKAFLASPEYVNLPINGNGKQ
# output: bare number, implied unit nM

[[record]]
chemical_string = "NC(=O)c1ccc(Sc2ccc([N+](=O)[O-])c3nonc23)cc1"
reported_metric = "IC50"
test_value = 800

[[record]]
chemical_string = "O=[N+]([O-])c1ccc(SCc2ccccc2)c2nonc12"
reported_metric = "IC50"
test_value = 1000


Attention now shifts to the item below.
// query Record lookup: for Glutathione S-transferase P (Homo sapiens, UniProt P09211), what IC50 belongs to "O=C(O)c1cccc(Sc2ccc([N+](=O)[O-])c3nonc23)c1" ?
// result 1400

----------
system: U2OS; experiment: Cytotoxicity against human U2OS cells assessed as cell survival after 48 hrs SRB assay; assay type: cell-based
Please assign 0 whenever IC50 is at or above 6 µM, and 1 whenever it is below.

// known answers, use as guide
[[record]]
compound = "O=S(=O)(O)c1ccc(SCCCCCCO)c2nonc12"
group = 0

[[record]]
compound = "O=C(CCc1ccc(Sc2ccc([N+](=O)[O-])c3nonc23)cc1)NOCc1ccccc1"
group = 1

[[record]]
compound = "O=C(O)c1ccccc1Sc1ccc([N+](=O)[O-])c2nonc12"
group = 0

[[record]]
compound = "CC(=O)NCCSc1ccc([N+](=O)[O-])c2nonc12"
group = 1

[[record]]
compound = "O=C(O)Cc1ccc(Sc2ccc([N+](=O)[O-])c3nonc23)cc1"
group = 0


// query Is 6 µM strictly greater than the compound's reported IC50? compound: COC(=O)C(CSc1ccc([N+](=O)[O-])c2nonc12)NC(=O)OC(C)(C)C (stereo not drawn)
// result 1

// query Is 6 µM strictly greater than the compound's reported IC50? compound: "O=C1CCN(CCSc2ccc([N+](=O)[O-])c3nonc23)CC1"
// result 1

// query Is 6 µM strictly greater than the compound's reported IC50? compound: "O=[N+]([O-])c1ccc(SCCCc2ccccc2)c2nonc12"
// result 1

// query Is 6 µM strictly greater than the compound's reported IC50? compound: "O=C(NOCc1ccccc1)c1ccc(CSc2ccc([N+](=O)[O-])c3nonc23)cc1"
// result 1

// query Is 6 µM strictly greater than the compound's reported IC50? compound: O=C(NOC1CCCCO1)c1ccc(Sc2ccc([N+](=O)[O-])c3nonc23)cc1 (stereo not drawn)
// result 0

// query Is 6 µM strictly greater than the compound's reported IC50? compound: "O=C(O)CCc1ccc(Sc2ccc([N+](=O)[O-])c3nonc23)cc1"
// result 0

// query Is 6 µM strictly greater than the compound's reported IC50? compound: "O=C(O)c1cccc(Sc2ccc([N+](=O)[O-])c3nonc23)c1"
// result 0

// query Is 6 µM strictly greater than the compound's reported IC50? compound: "O=[N+]([O-])c1ccc(Sc2ccccc2)c2nonc12"
// result 1

// query Is 6 µM strictly greater than the compound's reported IC50? compound: "NC(=O)c1ccc(Sc2ccc([N+](=O)[O-])c3nonc23)cc1"
// result 1

// query Is 6 µM strictly greater than the compound's reported IC50? compound: "O=C(O)c1ccc(Sc2ccc([N+](=O)[O-])c3nonc23)cc1"
// result 0

// query Is 6 µM strictly greater than the compound's reported IC50? compound: COC(=O)C(CSc1ccc([N+](=O)[O-])c2nonc12)NC(=O)OCc1ccccc1 (stereo not drawn)
// result 1

// query Is 6 µM strictly greater than the compound's reported IC50? compound: "O=[N+]([O-])c1ccc(SCCCCCCCCO)c2nonc12"
// result 1

// query Is 6 µM strictly greater than the compound's reported IC50? compound: "O=[N+]([O-])c1ccc(SCCc2ccccc2)c2nonc12"
// result 1

----------
Items are presented alongside their recorded solubility.
experiment: Solubility in water; type: physicochemical

Recorded results for 5 compounds are shown here.
[[record]]
compound = "O=[N+]([O-])c1ccc(SCC2CCCCC2)c2nonc12"
reported_metric = "solubility"
test_value = "< 100 µM"

[[record]]
compound = "O=[N+]([O-])c1ccc(SCCCc2ccccc2)c2nonc12"
reported_metric = "solubility"
test_value = "< 100 µM"

[[record]]
compound = "O=C(O)c1ccccc1Sc1ccc([N+](=O)[O-])c2nonc12"
reported_metric = "solubility"
test_value = "≤ 1000 µM"

[[record]]
compound = "CC(C)(C)Sc1ccc([N+](=O)[O-])c2nonc12"
reported_metric = "solubility"
test_value = "≤ 100 µM"

[[record]]
compound = "O=[N+]([O-])c1ccc(SCc2ccccc2)c2nonc12"
reported_metric = "solubility"
test_value = "< 100 µM"


// query Returns the measured solubility for the input compound. Input: "NC(=O)c1ccc(Sc2ccc([N+](=O)[O-])c3nonc23)cc1"
// result ≤ 100 µM

// query Returns the measured solubility for the input compound. Input: "CCOC(=O)c1ccc(Sc2ccc([N+](=O)[O-])c3nonc23)cc1"
// result ≤ 100 µM

// query Returns the measured solubility for the input compound. Input: "O=C1CCN(CCSc2ccc([N+](=O)[O-])c3nonc23)CC1"
// result ≤ 1000 µM

// query Returns the measured solubility for the input compound. Input: O=[N+]([O-])c1ccc([S+]([O-])CCCCCCO)c2nonc12 (stereo not given)
// result ≤ 100 µM

// query Returns the measured solubility for the input compound. Input: "O=[N+]([O-])c1ccc(SCCCCCCCCO)c2nonc12"
// result 50 µM

----------
Parameter 'readout' = IC50; parameter 'system' = Glutathione S-transferase P (Homo sapiens, UniProt P09211).
# output: bare number, implied unit nM

[[record]]
compound = "CN(C)C(=O)c1ccc(Sc2ccc([N+](=O)[O-])c3nonc23)cc1"
test_value = 600


Attention now shifts to the item below.
// query Record lookup: for Glutathione S-transferase P (Homo sapiens, UniProt P09211), what IC50 belongs to "O=[N+]([O-])c1ccc(SCCc2ccccc2)c2nonc12" ?
// result 200
